Cited source for all entries: PubChem BioAssay (NCI)

# testDetails: NCI Yeast Anticancer Drug Screen. Data for the rad50 strain (AID 155);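 further: 0% = growth of vehicle-only cultures of the same strain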
# runParameters: S. cerevisiae rad50 strain growth inhibition; at 50.0 µM; stronger effect = higher value
The panel holds about 79,000 compounds, 15% with a hit somewhere; the sample as a whole holds those more often. Where a SMILES comes first, the peptide text is derived from it. [ ]: non-standard residue; d: D form. The star is where a group is joined. Cbz = O=C(OCc1ccccc1)*; Nva = CCC[CH](N)C(=O)O
reportedMetric: growth inhibition (%)

                                   compound     reportedmetric  resultvalue
0                         Cc1nnc2sc(Cl)nn12  growth inhibition         26.9
1  O=C1NC2(CCN(CCCC3(c4ccc(F)cc4)OCCO3)CC2)Oc2ccccc21  growth inhibition        -11.6
2  CCCCCC/C=C\CCCCCCCCCC1=CC(=O)C=C(OC)C1=O  growth inhibition        -1.35
3  COc1ccc(NS(=O)(=O)c2ccc(NCc3c4ccccc4nc4cc(Cl)ccc34)cc2)nn1  growth inhibition         20.2
4  CCCC(NC(=O)OCc1ccccc1)C(=O)NC(CCSC)C(=O)O (stereo not given) (Cbz-[Nva]-Met-OH; configuration not given here)  growth inhibition        -54.6
5  CC1=NN(c2ccccc2)C(=O)/C1=C1\SC(c2ccccc2)(c2ccccc2)c2ccccc21  growth inhibition        -29.4
6  CCCCCCCCCCCc1noc2c1C(=O)C(O)CC2 (stereo not given)  growth inhibition         36.5
7             CC(C)(C#N)OC(=O)Nc1cccc(Cl)c1  growth inhibition         5.55
8                   CCCCCCCCCCCCCCNC(=O)CCl  growth inhibition         14.8
9  CSC(=S)n1nc(-c2cccs2)c(N=Nc2ccc([N+](=O)[O-])cc2)c1C(F)(F)F  growth inhibition         19.1
